# TARGET_OR_SYSTEM: Neu5Ac(a2-3)Gal(b1-3)[Fuc(a1-4)]GlcNAc(b1-3)Gal(b1-4)[Fuc(a1-3)]GlcNAc
# EXPERIMENTAL_PROTOCOL: glycan array binding signal (z-score within array); higher = stronger binding
# CONDITION_PARAMETERS: glycan notation: IUPAC condensed, linker removed
The full list was thinned out, with the strongest signals kept by preference.
METRIC_NAME: glycan array binding signal (z-score)
One number for each entry.

Tamarinin (protein) CDDSARAGNIVVYWGQGGSDNSEGSLKEACKSGHYNMIVLQQLIVYDDGRDPDLNLGAHCSDCTKLEEQIKYCQNKDIKILLQIGQVVPTQEDVKDVTKNLSEYLLKNFFSGKSGPLGEVYLNGIDIASVPEGNNLKFDELVEALNDSSTERRIYLSASPLCVYPDYYLNKAIQTEKLDFLFVQFFYQNPCIYTEGNPENLFEAMKTWTKNVPESMIFMALPATPNLDGYIPPRVLNKEILPAVSEASNFAGVMIFDRYFDRFRKYSSKIK
3.05

Let's switch to this binder now.
If you can, please state the reported glycan array binding signal (z-score) value of CTMLA2 (Anopheles gambiae), Q7Q7F8 (protein) MNLMITILIAVITVVRGDLSVPKTVDDILQQNPCLCPCKPFEEKEYFIPISRTSDWFGAVAYCHSVGMELAEVLNEDEARAMGEVIAEEESDSDDEFYWIGANDLGVQGTYRWALAGRPVLYSQWAAGEPNHARGENGQQPAERCVAVAMDKYEWNDFQCTQQKPFICQQFRKH .
-0.129
